Test system: SR leukemia
PROTOCOL TEXT: NCI-60 one-dose screen, 48 h (100 = growth as untreated, 0 = no growth, -100 = all killed)
CONDITION CONTEXT: 10 µM unless noted
About 83,000 compounds went through this panel and 20% of them were active in at least one assay; those are over-represented in the sample as a whole. Active and inactive are the calls of the source. The calls were made as follows: active = growth percent below 10; inactive = the rest.
PROPERTY MEASURED: growth

Batch of 3 compounds: report growth for each.
1. Cc1nn(-c2nc3ccccc3[nH]2)c2c1C(c1ccc(OCc3ccc(F)cc3)cc1)CC(=O)N2 (centres undefined)
2. Cn1cc(-c2ccc(F)c(C(F)(F)F)c2)nc1C1CCN(c2ncnc3[nH]ncc23)CC1
3. CC(=O)OCCC/C(=C\c1ccc2ccccc2c1)[N+](=O)[O-]

Out:
67.5% (inactive)
55.4% (inactive)
-33.8% (active)
